test system: HL-60(TB) leukemia; assay: NCI tumour cell line growth inhibition, 48 h
reported-endpoint: TGI (µM)
Give bare numbers, in µM.

[
  {
    "molecule": "c1ccc([P+](CC[P+](c2ccccc2)(c2ccccc2)c2ccccc2)(c2ccccc2)c2ccccc2)cc1",
    "subject-of-test": "HL-60(TB) leukemia",
    "unit-info": "µM",
    "TGI": 55.2
  }
]

Please give TGI for each item listed below.
1. CN(CCO)c1ccc(N2Cc3ccccc3OC3=C2C(=O)c2c(O)ccc(O)c2C3=O)cn1
2. O=C(c1cccs1)N(C(=O)N1CCN(c2ccccc2)CC1)S(=O)(=O)c1ccccc1
3. CC(=O)O[C@H]1CCC2[C@@H]3CCC4Nc5[nH]ncc5C[C@]4(C)C3CC[C@@]21C (some centres undefined)
4. CN1C(=O)c2ccccc2OC12C=Cc1ccc(O)cc1O2 (centres undefined)
5. CCC(C)C1NC(=O)C(NC(=O)c2c3[nH]c4c(C(=O)NC5C(=O)NC(C(C)CC)C(=O)N6CCCC6C(=O)N(C)CC(=O)N(C)C(C(C)C)C(=O)OC5C)ccc(C)c4oc-3c(C)c(=O)c2=O)C(C)OC(=O)C(C(C)C)N(C)C(=O)CN(C)C(=O)C2CCCN2C1=O (centres undefined)
6. COc1cc(OC)c(/C=C/c2c3ccccc3cc[n+]2C)c(OC)c1
7. Ic1cccc(/C=C/CN2CCN(CCOC(c3ccccc3)c3ccccc3)CC2)c1

1. 0.406
2. 45
3. 42.5
4. 58.5
5. 52.2
6. 7.32
7. 30.9

// "O=C(Nc1ccc(-n2ccc3c(NC(=O)c4ccccc4)nccc32)cc1)Nc1ccc(Cl)c(Cl)c1" : TGI value = 4.22

###

Exercise: for every item that follows, state its recorded TGI.
system: IGROV1 ovarian; experiment: NCI tumour cell line growth inhibition, 48 h

Example compounds with recorded TGI:
[
  {
    "compound": "CC1COC(C)(C)P(=O)(c2ccccc2)C1 (stereo unspecified)",
    "TGI": "> 100 µM"
  },
  {
    "compound": "COC(=O)CC1C=CC(C)(OC)OO1 (stereo unspecified)",
    "TGI": "> 100 µM"
  },
  {
    "compound": "[N-]=[N+]=Nc1cc(=O)n2c3c(cccc13)CCC2",
    "TGI": "> 100 µM"
  },
  {
    "compound": "O=C(/C=C/c1ccccc1Cl)NC1C=Nc2ccc([N+](=O)[O-])cc2NC1 (stereo unspecified)",
    "TGI": "> 100 µM"
  }
]

Please give TGI for each item listed below.
1. Cc1c(C)n(-c2ccccc2)c2nc(S(C)(=O)=O)nc(S(C)(=O)=O)c12
2. Cc1cn(C2CC(O)C(CO[Si](C)(C)C(C)(C)C)OC2OC(C)C)c(=O)[nH]c1=O (stereo unspecified)

["9.24 µM", "77 µM"]

###

Exercise: for every item that follows, state its recorded TGI.
system: CCRF-CEM leukemia; assay: NCI tumour cell line growth inhibition, 48 h

[
  {
    "compound": "CCN1C(=O)N(CC)C2C1NN=c1s/c(=C3\\C(=O)N(CC(C)(C)C)c4ccccc43)c(=O)n12 (centres undefined)",
    "subject-of-test": "CCRF-CEM leukemia",
    "TGI": "> 100 µM"
  },
  {
    "compound": "COc1ccc(-c2ccc(-c3ccc(C(=N)N)s3)s2)cc1",
    "subject-of-test": "CCRF-CEM leukemia",
    "TGI": "0.485 µM"
  },
  {
    "compound": "CC1COC(C)(C)P(=O)(c2ccccc2)C1 (centres undefined)",
    "subject-of-test": "CCRF-CEM leukemia",
    "TGI": "> 100 µM"
  },
  {
    "compound": "COc1ccc(OC)c(C(Cc2ccnc3ccccc23)Cc2ccnc3ccccc23)c1",
    "subject-of-test": "CCRF-CEM leukemia",
    "TGI": "> 10 µM"
  },
  {
    "compound": "Cc1[nH]c(/C=C2\\C(=O)Nc3ccccc32)c(C)c1CCC(=O)O",
    "subject-of-test": "CCRF-CEM leukemia",
    "TGI": "> 100 µM"
  }
]

Please give TGI for each item listed below.
1. COC(=O)[C@@H](C)C[C@H](Cc1ccccc1)NC(=O)c1csc([C@@H](C[C@H](C(C)C)N(C)C(=O)[C@@H](NC(=O)[C@H]2CCCCN2C)C2CCCCC2)OC(C)=O)n1
2. CC(C)N(C(=O)C12C3C4C1(I)C1C2C3(I)C41C(=O)N(C(C)C)C(C)C)C(C)C (centres undefined)
3. O=C1NC(=O)/C(=C\c2ccccc2)C2=C1CCCC2

5.8 µM
> 61.2 µM
> 37.9 µM

// Cc1cn(C2CC(O)C(CO[Si](C)(C)C(C)(C)C)OC2OC(C)C)c(=O)[nH]c1=O (centres undefined) : TGI value = 61.1 µM

###

Exercise: for every item that follows, state its recorded TGI.
test system: A498 renal; experiment: NCI tumour cell line growth inhibition, 48 h

Please give TGI for each item listed below.
1. Nc1nc(NCC2(CO)CC2)cc(=O)[nH]1
2. OCCCNc1nccc(-c2c(-c3ccc(F)cc3)nn3cc(C(F)(F)F)ccc23)n1
3. CC(CO)CCNc1ncnc2c1ncn2CCC(=O)OC(C)(C)C (stereo not drawn)
4. COc1cc(C(C)=O)cc(C(=O)N(C(C)C)C(C)C)c1[Si](C)(C)C

1: > 100 µM; 2: > 25 µM; 3: > 100 µM; 4: > 100 µM

Please give TGI for each item listed below.
1. CC1COC(C)(C)P(=O)(c2ccccc2)C1 (stereo not drawn)
2. O=C1c2cccc3cccc(c23)C(=O)N1CCCNCCCNCCCCNCCCNCCCN1C(=O)c2cccc3cccc(c23)C1=O
3. Nc1nc(Cl)c(N)c(NCC2(CO)CCCC2)n1

1: > 100 µM; 2: 25.2 µM; 3: > 100 µM

Please give TGI for each item listed below.
1. CN(C)CC1CCC/C(=C\c2ccc(Cl)cc2)C1=O (stereo not drawn)
2. CC1=CCC(C)=Nc2nc3ccccc3n21
3. CC(C)CC(NC(=O)C(CI)Cc1ccccc1)C(=O)Nc1ccccc1 (stereo not drawn)
4. O=C1c2ccccc2-c2c1c1ccccc1c(=O)n2CCCCl
5. Cc1cc(NS(=O)(=O)c2ccc(Nc3c4ccccc4nc4c(C(=O)N5CCN(CCO)CC5)ccc(Cl)c34)cc2)no1
6. S=C1SSC2N=CC=CC12 (stereo not drawn)
7. O=C(/N=C/c1c(O)c2ccccc2oc1=O)Oc1ccccc1

31.1 µM
> 100 µM
> 100 µM
28.5 µM
> 100 µM
> 100 µM
46.2 µM

Please give TGI for each item listed below.
1. COC(=O)/C=C/c1c(CC=C(C)C)ncn1C
2. CC(C)N(C(=O)C1(O)c2ccccc2C=Cc2ccccc21)C(C)C
3. O=C(NCCCl)N(O)C(=O)Nc1ccccc1

1. > 100 µM
2. 29.8 µM
3. > 100 µM

Please give TGI for each item listed below.
1. O=C1NC(=O)C(c2c[nH]c3ccccc23)=C1c1cn(C(c2ccccc2)(c2ccccc2)c2ccccc2)cn1
2. Cc1nc2sc3c(c2c(=O)[nH]1)CCCC3
3. C/C(=N/NC(=S)Nc1ccc(Cl)cc1)c1cccc(/C(C)=N\NC(=S)Nc2ccc(Cl)cc2)n1
4. O=c1oc2ccccc2cc1-c1cn2ccccc2n1
5. CC(C)C(=O)NS(=O)(=O)c1ccccc1
6. COC1(OC)CC2C(=O)N(Cc3ccccc3)C1C=C2S(=O)(=O)c1ccccc1 (stereo not drawn)

1. 18.3 µM
2. > 100 µM
3. 79.5 µM
4. 6.49 µM
5. > 100 µM
6. 45 µM

Please give TGI for each item listed below.
1. Ic1cccc(/C=C/CN2CCN(CCOC(c3ccccc3)c3ccccc3)CC2)c1
2. CCOC(=O)CO/N=C1/C(c2c(O)[nH]c3ccccc23)=Nc2ccccc21
3. CC(=O)O[C@H]1CCC2[C@@H]3CCC4Nc5oncc5C[C@]4(C)C3CC[C@@]21C (stereo partly drawn)

1. 31.7 µM
2. 38.2 µM
3. > 10 µM

Please give TGI for each item listed below.
1. CCCCCOc1ccc(/C=N/Nc2cc(C)nc3ccc(Br)cc23)cc1
2. COc1c(OC(C)=O)c(OC(C)=O)cc2c1-c1ccc(SC)c(=O)cc1C(NC(C)=O)CC2 (stereo not drawn)

3.32 µM
56 µM

Please give TGI for each item listed below.
1. O=Cc1ccc2c(c1-c1c(C=O)ccc3c1OCO3)OCO2
2. COc1ccc(O)c(C(=O)c2ccc(C(=O)N[C@H]3CCCNC[C@@H]3NC(=O)c3ccncc3)cc2)c1F

1. > 100 µM
2. 3.26 µM

###

system: NCI-H23 lung; test: NCI tumour cell line growth inhibition, 48 h
reported-endpoint: TGI

Example compounds with recorded TGI:
[
  {
    "compound": "COC1=CC2C(c3cc4ccccc4n3S(=O)(=O)c3ccccc3)CC1CN2C(=O)OCc1ccccc1 (centres undefined)",
    "subject-of-test": "NCI-H23 lung",
    "TGI": "> 100 µM"
  },
  {
    "compound": "COc1ncc(-c2ccc3ncnc(Nc4cccc(Cl)c4)c3c2)cc1NS(=O)(=O)C1CC1",
    "subject-of-test": "NCI-H23 lung",
    "TGI": "> 100 µM"
  },
  {
    "compound": "NC(=O)c1cc(S(=O)(=O)Nc2nnc(-c3ccccc3)c(-c3ccccc3)n2)c(SCc2ccccc2)cc1Cl",
    "subject-of-test": "NCI-H23 lung",
    "TGI": "> 100 µM"
  },
  {
    "compound": "C=C1C(=O)O[C@H]2[C@H]1CC/C(COC(=O)/C=C\\C(=O)NCc1ccc(Cn3c(=O)sn(CCCC)c3=O)cc1)=C\\CC[C@@]1(C)O[C@@H]21",
    "subject-of-test": "NCI-H23 lung",
    "TGI": "2.89 µM"
  },
  {
    "compound": "CCCCCC(=O)CCCCCCCC(O)CC(=O)OCC (centres undefined)",
    "subject-of-test": "NCI-H23 lung",
    "TGI": "> 100 µM"
  },
  {
    "compound": "[N-]=[N+]=Nc1cc(=O)[nH]nc1-c1ccccc1",
    "subject-of-test": "NCI-H23 lung",
    "TGI": "> 100 µM"
  }
]

Please give TGI for each item listed below.
1. O=C(c1ccccc1)c1c(-c2ccccc2)n(-c2ccccc2)[nH]c(=O)c1=O
2. CCOC(=O)CO/N=C1/C(c2c(O)[nH]c3ccccc23)=Nc2ccccc21
3. O=c1oc2ccccc2cc1-c1cn2ccccc2n1

1. > 100 µM
2. > 100 µM
3. 29.6 µM
